- ASSAYED SYSTEM: T1, human IL-23 (IL-23-His-Biotin, Akesobio, 20161209) (human, UniProt Q9NPF7 20-189; P29460 23-328)
- T1 construct: His-tagged and biotinylated; also called human IL23-His-Biotin
- T1 sequence (looked up) 1: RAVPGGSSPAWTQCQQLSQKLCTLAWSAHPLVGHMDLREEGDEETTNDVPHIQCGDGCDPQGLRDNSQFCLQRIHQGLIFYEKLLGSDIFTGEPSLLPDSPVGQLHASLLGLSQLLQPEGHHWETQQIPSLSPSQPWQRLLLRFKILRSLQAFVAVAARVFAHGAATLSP
- T1 sequence (looked up) 2: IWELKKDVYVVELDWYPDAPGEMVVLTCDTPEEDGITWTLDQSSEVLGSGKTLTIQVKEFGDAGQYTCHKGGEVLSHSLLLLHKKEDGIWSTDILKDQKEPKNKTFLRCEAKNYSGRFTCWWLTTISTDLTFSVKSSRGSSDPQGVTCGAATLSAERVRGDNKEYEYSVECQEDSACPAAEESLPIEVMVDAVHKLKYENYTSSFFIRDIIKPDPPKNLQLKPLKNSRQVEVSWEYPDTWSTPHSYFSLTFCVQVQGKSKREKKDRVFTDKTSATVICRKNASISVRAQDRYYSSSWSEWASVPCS
- ASSAY NOTES: FACS competition, IL-23-His-Biotin 2 µg/mL on 293T-IL-12RB1&IL-23R cells, antibody 10 µg/mL
- Experimental: 2.1. […] 200 μL of 1% PBSA was added into each sample, and the mixture was centrifuged at 700×g for 5 min to discard the supernatant. According to experiment design, correspondingly diluted antibody (highest final concentration of 30 μg/mL, 3-fold dilution, 8 concentrations in total) and human IL-23 (IL-23-His-Biotin, Akesobio, 20161209) (final concentration of 2 μg/mL) were mixed at a ratio of 1:1, and a blank control was set. […]
Can you tell me MFI for the items I'm about to list?
Numbers only.

Challenge: // lookup MFI for H5L12 (antibody, human IgG1, kappa, V domains shown, IgG1/kappa) VH: EVQLVQSGAEVKKPGESLKISCQSSGYSFTTYWIGWVRQMPGQGLEWIGIMSPVDSDIRYNPMFRGQVTMSVDKSSSTAYLQWSSLKASDTAMYYCARRRPGQGYFDFWGQGTMVTVSS VL: EIVLTQSPATLSASPGERATISCRASQSVSSWLAWYQQKPGQAPRSLIYAASNRQSGIPARFSGSGSGTDFTLTISSLEPEDFAVYYCQQYNIYPYTFGQGTRLEIKR
Response given: 12.7

New cases:
Challenge: // lookup MFI for H5L10 (antibody, human IgG1, kappa, V domains shown, IgG1/kappa) VH: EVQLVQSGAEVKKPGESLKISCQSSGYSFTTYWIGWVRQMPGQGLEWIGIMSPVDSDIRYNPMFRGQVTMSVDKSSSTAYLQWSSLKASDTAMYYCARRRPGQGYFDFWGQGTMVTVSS VL: EIVLTQSPATLSASPGERATISCRASQSVGSWLAWYQQKPGQAPRSLIYAASNLQSGIPARFSGSGSGTDFTLTISSLEPEDFAVYYCQQYNIYPYTFGQGTRLEIKR
Response given: 12.7
